experiment: Pharmacokinetic parameter :volume apparent of distribution was reported; format: ADME, organism-based; details: in vivo
Reported Vd values for a set of molecules
Numeric answer only, unit L/kg assumed.

Examples from the recorded data:
CN(C)CCC(c1ccc(Cl)cc1)c1ccccn1 (stereo not given)    5.9
CN1CCCC(n2nc(Cc3ccc(Cl)cc3)c3ccccc3c2=O)CC1 (stereo not given)    14.5

[Q] What value of measured Vd is listed for CC(C)(C)c1ccc(C(O)CCCN2CCC(C(O)(c3ccccc3)c3ccccc3)CC2)cc1 (stereo not given) ?
[A] 2.9

[Q] # iterate: OCCOCCN1CCN(C(c2ccccc2)c2ccc(Cl)cc2)CC1 (stereo not given) [HYDROXYZINE]
[A] 30.5

[Q] # iterate: `CC(C)(C(=O)O)c1ccc(C(=O)CCCN2CCC(OC(c3ccccc3)c3ccccc3)CC2)cc1`
[A] 2.4

---

assay: Lipophilicity parameter log Poct N; conditions: octanol/water
endpoint-label: logP
The answer should be written as a number, with no unit following it.

[Q] What value of measured logP is listed for OCCOCCN1CCN(C(c2ccccc2)c2ccc(Cl)cc2)CC1 (stereo unspecified) [HYDROXYZINE] ?
[A] 3.5

---

assay: compound was evaluated for saturable association constant (nKa) of isolated serum protein VLDL
endpoint-label: nKa (M/M)
Numeric answer only, unit M/M assumed.

[Q] What value of measured nKa is listed for O=C(O)COCCN1CCN(C(c2ccccc2)c2ccc(Cl)cc2)CC1 (stereo unspecified) ?
[A] 289

---

experiment: Pharmacokinetic parameter :volume apparent of distribution was reported; type: ADME, organism-based; settings: in vivo
endpoint-label: Vd (L/kg)
Numeric answer only, unit L/kg assumed.

Examples from the recorded data:
CN(C)CCC(c1ccc(Br)cc1)c1ccccn1 (stereo not drawn)    10
COc1ccc(CCN2CCC(Nc3nc4ccccc4n3Cc3ccc(F)cc3)CC2)cc1    48

Field: next compound
[Q] What value of measured Vd is listed for `Cc1ccc(/C(=C\CN2CCCC2)c2ccccn2)cc1` ?
[A] 8.7

---

Reported B values for a set of molecules
test: Pharmacokinetic parameter :drug bound to plasma was reported; format: ADME, cell-free
Returns: string containing the number followed by the unit.

[Q] What value of measured B is listed for `Cc1ccc(/C(=C\CN2CCCC2)c2ccccn2)cc1` ?
[A] 90%

[Q] # iterate: CC(C)(C(=O)O)c1ccc(C(O)CCCN2CCC(C(O)(c3ccccc3)c3ccccc3)CC2)cc1 (centres undefined) [FEXOFENADINE]
[A] 65%

[Q] # iterate: CN(C)CCOC(c1ccccc1)c1ccccc1 [DIPHENHYDRAMINE]
[A] 98%

[Q] # iterate: CN(C)CCC(c1ccc(Br)cc1)c1ccccn1 (centres undefined)
[A] 72%

[Q] # iterate: `COc1ccc(CCN2CCC(Nc3nc4ccccc4n3Cc3ccc(F)cc3)CC2)cc1`
[A] 96%

[Q] # iterate: CN(C)CCC(c1ccc(Cl)cc1)c1ccccn1 (centres undefined)
[A] 72%

[Q] # iterate: `CC(C)(C(=O)O)c1ccc(C(=O)CCCN2CCC(OC(c3ccccc3)c3ccccc3)CC2)cc1`
[A] 98%

[Q] # iterate: `CCOC(=O)N1CCC(=C2c3ccc(Cl)cc3CCc3cccnc32)CC1`
[A] 97%

[Q] # iterate: CC(C)(C)c1ccc(C(O)CCCN2CCC(C(O)(c3ccccc3)c3ccccc3)CC2)cc1 (centres undefined)
[A] 98%

The measurements presented in this section are drawn from ChEMBL document CHEMBL1131523.
